// provenance: PubChem BioAssay (EPA / NIEHS)

Read-out: Transforming Growth Factor (TGFB1), TGFB1 (gene 7040)
Test: LTEA_HepaRG_TGFB1: Life Technologies and Expression Analysis (LTEA) Assay for Transforming Growth Factor (TGFB1) Transporter using HepaRG (AID 2283533)
Details: mRNA level, 48 h; actives raise or lower the signal
Experimental: LTEA_HepaRG is a cell based, multiplexed-readout assay that uses HepaRG, a human liver cell line, with measurements taken at 48 hours after chemical dosing on a 96-well plate.LTEA_HepaRG_TGFB1 is one of 102 assay component(s) measured in the LTEA HepaRG cell culture assay. It is a marker of Cell proliferation, survival, death.Data from the assay component LTEA_HepaRG_TGFB1 was analyzed into 1 endpoint. […]
The source made the active and inactive calls. The calls were made as follows: active = hit-call score of the fitted dose curve at least 0.9, where 1 is the maximum; inactive = score below 0.9.
measured attribute: AC50

| compound | measured attribute | readout value |
| --- | --- | --- |
| C[C@]12C[C@H](O)[C@H]3[C@@H](CCC4=CC(=O)CC[C@@]43C)[C@@H]1CC[C@@H]2C(=O)CO | AC50 | inactive |
| C#C[C@]1(O)CC[C@H]2[C@@H]3CCC4=CC(=O)CC[C@@H]4[C@H]3CC[C@@]21CC | AC50 | inactive |
| O=C(Nc1ccc([N+](=O)[O-])cc1Cl)c1cc(Cl)ccc1O | AC50 | 3.95 µM (active) |
| COC(=O)CSc1cc(N=c2sc(=O)n3n2CCCC3)c(F)cc1Cl | AC50 | inactive |
| Oc1ccc(C(c2ccc(O)cc2)C(Cl)(Cl)Cl)cc1 | AC50 | 87.1 µM (active) |
| O=C(c1ccccc1)C1CCCCC1 | AC50 | inactive |
| CCC(C)OC(=O)N1CCCCC1CCO (stereo unspecified) | AC50 | inactive |
| CCOC(=O)c1ccc(O)cc1 | AC50 | inactive |
| CCSC(=O)N(CC(C)C)CC(C)C | AC50 | inactive |
| CCN(CC)C(=O)c1cccc(C)c1 | AC50 | inactive |
| CC(=O)S[C@@H]1CC2=CC(=O)CC[C@]2(C)[C@H]2CC[C@@]3(C)[C@@H](CC[C@@]34CCC(=O)O4)[C@H]12 | AC50 | inactive |
| O=C(O)C1(C(=O)Nc2ccc(Cl)cc2Cl)CC1 | AC50 | inactive |
| CC(C)(c1ccc(O)cc1)c1ccc(O)cc1 | AC50 | inactive |
| CCOC(=O)C(C)Oc1ccc(Oc2nc3ccc(Cl)cc3o2)cc1 (stereo unspecified) | AC50 | inactive |
| CCCN(CCC)C(=O)SCC | AC50 | inactive |
| COCCO | AC50 | inactive |
| O=C(c1ccc(O)cc1O)c1ccc(O)cc1O | AC50 | inactive |
| CCNc1nc(N)nc(Cl)n1 | AC50 | inactive |
| N#CSCSc1nc2ccccc2s1 | AC50 | inactive |
| COc1c(Cl)ccc(Cl)c1C(=O)O | AC50 | inactive |
| Cc1nn(C)c(Oc2ccccc2)c1C=NOCc1ccc(C(=O)OC(C)(C)C)cc1 | AC50 | 63.2 µM (active) |
| CSC(=O)c1cccc2nnsc12 | AC50 | inactive |
| CCCCOC(=O)[C@@H](C)Oc1ccc(Oc2ccc(C(F)(F)F)cn2)cc1 | AC50 | inactive |
| CN(C)C(=O)Nc1ccc(Cl)c(Cl)c1 | AC50 | inactive |
| CCCCC(CC)CN1C(=O)C2C3C=CC(C3)C2C1=O (stereo unspecified) | AC50 | 78.8 µM (active) |
| N[C@@H](Cc1cc(I)c(Oc2ccc(O)c(I)c2)c(I)c1)C(=O)O | AC50 | 63.2 µM (active) |

###

assay: BSK_CASM3C_Proliferation: Cell Proliferation Assessment in the BioMAP Diversity Plus: CASM3C Assay (AID 2283047); settings: primary human coronary artery smooth muscle cells;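 also: sulforhodamine B total protein stain as relative cell number at 560 nm; sub-confluent cells exposed 48 h before staining; fitted both ways against DMSO so gain or loss of cell number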
The source made the active and inactive calls. How the source made its calls: active means hit-call score of the fitted dose curve at least 0.9, where 1 is the maximum; inactive means score below 0.9.
Possible outcomes: active, inactive

| molecule | label |
| --- | --- |
| CCOC(=O)[C@H](C)Oc1ccc(Oc2nc3ccc(Cl)cc3o2)cc1 | inactive |
| N[C@@H](Cc1cc(I)c(Oc2ccc(O)c(I)c2)c(I)c1)C(=O)O | inactive |
| CN(C)C(=O)Nc1ccc(Cl)c(Cl)c1 | inactive |
| c1ccc(Nc2ccccc2)cc1 | inactive |
| CCCOC(=O)c1ccc(C(=O)OCCC)nc1 | inactive |
| O=C(c1ccc(O)cc1O)c1ccc(O)cc1O | inactive |
| CCCOC(=O)NCCCN(C)C | inactive |
| CCCCCCC(C)OC(=O)COc1nc(F)c(Cl)c(N)c1Cl (stereo not given) | active |
| CCCN(CCC)c1c([N+](=O)[O-])cc(C(F)(F)F)c(N)c1[N+](=O)[O-] | active |
| COC(=O)c1cccc(C)c1S(=O)(=O)NC(=O)Nc1nc(OCC(F)(F)F)nc(N(C)C)n1 | inactive |
| c1ccc2[nH]c(-c3cscn3)nc2c1 | inactive |
| CCCN(CCC)C(=O)SCC | inactive |
| CCCCCOC(=O)COc1cc(N2C(=O)C3=C(CCCC3)C2=O)c(F)cc1Cl | active |
| S=C([S-])NCCNC(=S)[S-].[Mn+2] | active |
| C[C@]12C[C@H](O)[C@H]3[C@@H](CCC4=CC(=O)CC[C@@]43C)[C@@H]1CC[C@@H]2C(=O)CO | active |

###

molecular target: Cellular tumor antigen p53 (Homo sapiens) (UniProt P04637); assay: TOX21_p53_BLA_p5_ratio: Tox21 HCT-116 p53 Agonism Beta-lactamase Assay, Ratio, Phase 5 (AID 2283599)
Sequence (P04637 whole entry, looked up): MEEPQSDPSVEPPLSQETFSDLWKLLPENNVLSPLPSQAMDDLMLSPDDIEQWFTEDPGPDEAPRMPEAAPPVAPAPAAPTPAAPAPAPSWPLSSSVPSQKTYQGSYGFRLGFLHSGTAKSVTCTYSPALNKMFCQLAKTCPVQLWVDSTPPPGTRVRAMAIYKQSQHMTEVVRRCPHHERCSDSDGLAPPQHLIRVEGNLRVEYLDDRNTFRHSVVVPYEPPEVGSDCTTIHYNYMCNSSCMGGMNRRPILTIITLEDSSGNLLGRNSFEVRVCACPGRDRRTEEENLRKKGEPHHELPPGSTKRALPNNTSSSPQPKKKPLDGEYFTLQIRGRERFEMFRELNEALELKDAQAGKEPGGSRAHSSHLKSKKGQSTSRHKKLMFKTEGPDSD
Records with an inconclusive call do not appear. Calls of active or inactive are those of the source. How the source made its calls: active means hit-call score of the fitted dose curve at least 0.9, where 1 is the maximum; inconclusive means response in the unintended direction; inactive means score below 0.9.

| compound | outcome |
| --- | --- |
| C[C@]12CC[C@@H]3c4ccc(O)cc4C[C@@H](CCCCCCCCCS(=O)CCCC(F)(F)C(F)(F)F)[C@H]3[C@@H]1CC[C@@H]2O (stereo partly specified) | inactive |
| CC(C)(c1ccc(O)cc1)c1ccc(O)cc1 | inactive |
| CCCCCCC(C)OC(=O)COc1nc(F)c(Cl)c(N)c1Cl (stereo unspecified) | inactive |
| c1ccc(Nc2ccccc2)cc1 | inactive |
| C#CCOC(=O)[C@@H](C)Oc1ccc(Oc2ncc(Cl)cc2F)cc1 | inactive |
| CCCOC(=O)c1ccc(C(=O)OCCC)nc1 | inactive |

###

Experiment: APR_HepG2_P-H2AX_1hr: Apredica 1-hour HepG2 Assay for H2AX Phosphorylation (AID 2282673)
Conditions: high-content imaging, actives raise or lower the signal
Method: APR_HepG2_1hr is a cell-based, multiplexed-readout assay that uses HepG2, a human liver cell line, with measurements taken at 1 hour after chemical dosing in a 384-well plate.APR_HepG2_P-H2AX_1hr is one of 10 assay component(s) measured or calculated from the APR_HepG2_1hr assay. […] This assay endpoint, APR_HepG2_P-H2AX_1hr, was analyzed with bidirectional fitting relative to DMSO as the negative control and baseline of activity. […]
Active and inactive are the calls of the source. How the source made its calls: active means hit-call score of the fitted dose curve at least 0.9, where 1 is the maximum; inactive means score below 0.9.

| molecule | outcome |
| --- | --- |
| COC(=O)c1ccccc1S(=O)(=O)NC(=O)Nc1nc(OC(F)F)cc(OC(F)F)n1 | inactive |
| Cc1nn(C)c(Oc2ccccc2)c1C=NOCc1ccc(C(=O)OC(C)(C)C)cc1 | inactive |
| CCC(O)=C1C(=O)CC(C(=O)O)CC1=O (stereo not drawn) | inactive |

###

experiment: BSK_SAg_Proliferation: Cell Proliferation Assessment in the BioMAP Diversity Plus: SAg Assay (AID 2283095); conditions: primary human HUVEC with PBMC;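 also: relative cell number as total protein by SRB absorbance in sub-confluent culture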
Calls of active or inactive are those of the source. How the source made its calls: active means hit-call score of the fitted dose curve at least 0.9, where 1 is the maximum; inactive means score below 0.9.
measured attribute: AC50

| compound | readout value |
| --- | --- |
| CCCCCCC(C)OC(=O)COc1nc(F)c(Cl)c(N)c1Cl (configuration not stated) | 9.53 µM (active) |
| COc1c(Cl)ccc(Cl)c1C(=O)O | inactive |
| COC(=O)CSc1cc(N=c2sc(=O)n3n2CCCC3)c(F)cc1Cl | inactive |
| S=C([S-])NCCNC(=S)[S-].[Mn+2] | 8.4 µM (active) |
| CCOC(=O)c1ccc(O)cc1 | inactive |
| C[C@]12CC[C@@H]3c4ccc(O)cc4C[C@@H](CCCCCCCCCS(=O)CCCC(F)(F)C(F)(F)F)[C@H]3[C@@H]1CC[C@@H]2O (some centres not stated) | inactive |
| O=C(c1ccccc1)C1CCCCC1 | inactive |
| CCCCOC(=O)C(C)Oc1ccc(Oc2ccc(C(F)(F)F)cn2)cc1 (configuration not stated) | inactive |
| COCCO | inactive |
| Cc1nn(C)c(Oc2ccccc2)c1C=NOCc1ccc(C(=O)OC(C)(C)C)cc1 | 8.08 µM (active) |
| c1ccc(Nc2ccccc2)cc1 | inactive |
| CCCCC(CC)COC(=O)c1ccccc1C(=O)O (configuration not stated) | inactive |
